Assay: total protein half-life in vivo (active degradation + dilution); higher = more stable protein
Settings: wild type E. coli NCM3722; growth: P-lim chemostat; doubling time 6 h
Hi there, I'd appreciate the recorded total protein half-life in vivo for every entry that follows.
Numbers only, in h.

Below, each entry is followed by its recorded total protein half-life in vivo result.
monomer sequence: MIPLQHGLILAAILFVLGLTGLVIRRNLLFMLIGLEIMINASALAFVVAGSYWGQTDGQVMYILAISLAAAEASIGLALLLQLHRRRQNLNIDSVSEMRG [P0AFE4]
total protein half-life in vivo / h: 7.16
//
monomer sequence: MNFLAHLHLAHLAESSLSGNLLADFVRGNPEESFPPDVVAGIHMHRRIDVLTDNLPEVREAREWFRSETRRVAPITLDVMWDHFLSRHWSQLSPDFPLQEFVCYAREQVMTILPDSPPRFINLNNYLWSEQWLVRYRDMDFIQNVLNGMASRRPRLDALRDSWYDLDAHYDALETRFWQFYPRMMAQASRKAL
total protein half-life in vivo / h: 3.04
//
monomer sequence: MKKTAIAIAVALAGFATVAQAAPKDNTWYTGAKLGWSQYHDTGFINNNGPTHENQLGAGAFGGYQVNPYVGFEMGYDWLGRMPYKGSVENGAYKAQGVQLTAKLGYPITDDLDIYTRLGGMVWRADTKSNVYGKNHDTGVSPVFAGGVEYAITPEIATRLEYQWTNNIGDAHTIGTRPDNGMLSLGVSYRFGQGEAAPVVAPAPAPAPEVQTKHFTLKSDVLFNFNKATLKPEGQAALDQLYSQLSNLDPKDGSVVVLGYTDRIGSDAYNQGLSERRAQSVVDYLISKGIPADKISARGMGESNPVTGNTCDNVKQRAALIDCLAPDRRVEIEVKGIKDVVTQPQA [P0A910]
total protein half-life in vivo / h: 6.22

Hi there! I need total protein half-life in vivo for each item below, if you can.
1. MKKPLRQQNRQIISYVPRTEPAPPEHAIKMDSFRDVWMLRGKYVAFVLMGESFLRSPAFTVPESAQRWANQIRQEGEVTE [P0AE60]
2. MINYGVVGVGYFGAELARFMNMHDNAKITCVYDPENGENIARELQCINMSSLDALVSSKLVDCVIVATPNYLHKEPVIKAAKNKKHVFCEKPIALSYEDCVDMVKACKEAGVTFMAGHIMNFFNGVQYARKLIKEGVIGEILSCHTKRNGWENKQERLSWKKMKEQSGGHLYHHIHELDCVQHLLGEIPETVTMIGGNLAHSGPGFGNEDDMLFMTLEFPSGKLATLEWGSAFNWPEHYVIINGTKGSIKIDMQETAGSLRIGGQTKHFLVHETQEEDDDRRKGNMTSEMDGAIAYGHPGKKTPLWLASLIRKETLFLHNILCGAKPEEDYIDLLNGEAAMSAIATADAATLSRSQDRKVKISEIIKHTSVM
3. MTHKATEILTGKVMQKSVLITGCSSGIGLESALELKRQGFHVLAGCRKPDDVERMNSMGFTGVLIDLDSPESVDRAADEVIALTDNCLYGIFNNAGFGMYGPLSTISRAQMEQQFSANFFGAHQLTMRLLPAMLPHGEGRIVMTSSVMGLISTPGRGAYAASKYALEAWSDALRMELRHSGIKVSLIEPGPIRTRFTDNVNQTQSDKPVENPGIAARFTLGPEAVVDKVRHAFISEKPKMRYPVTLVTWAVMVLKRLLPGRVMDKILQG [P0AFP4]

Reply:
1. 4.26
2. 6.27
3. 6.03
